# Tested on: HT29 colon
# Experiment description: NCI tumour cell line growth inhibition, 48 h
Property: TGI (µM)
Value expressed in µM; do not type the unit.

Known TGI results, listed for orientation:
Compound	Property	Observed measurement
COc1ccc2[nH]cc(-c3nc(-c4c[nH]c5ccncc45)cs3)c2c1	TGI	4.87
COc1cc2c(c(OC)c1OC)-c1ccc(SC)c(=O)cc1C(CC(=O)Oc1cccc(C#N)c1)C2 (stereo not given)	TGI	0.796
NCCCCNC1(c2cc3ccccc3s2)CCCCC1	TGI	9.7

// switching to the query compound
Input line: Data request, read-out TGI, for CN1C(=O)C(c2c[nH]c3ccccc23)=C(c2c(-c3c[nH]c4ccccc34)[nH]c3ccccc23)C1=O
Output line: 8.36
